Tested on: FXR:RXRa (NR concentration 270 nM, RXRa partner concentration 90 nM)
measurement-protocol: PBM binding z-score (relative to random genomic background probes); higher = stronger binding; sequences stand for … in GC…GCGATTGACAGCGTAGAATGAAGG
Measured PBM binding z-score by item
API doc: respond with a numeric literal and nothing else, no unit.

Below, 2 sequences whose answers are already recorded.
input_sequence=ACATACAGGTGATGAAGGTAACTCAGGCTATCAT tested_target="FXR:RXRa (NR concentration 270 nM, RXRa partner concentration 90 nM)" observed_result=0.328
input_sequence=GCGACTGTGGCATCAGCAGGTTACCATAACTTAA tested_target="FXR:RXRa (NR concentration 270 nM, RXRa partner concentration 90 nM)" observed_result=-0.475

The record that follows has no PBM binding z-score shown yet.
Asked: Value lookup for PBM binding z-score; key = AGAATGTGGTTATACGTAGATCAGGGAAGAAAGT
Given back: 0.107
